Test system: JAK/STAT signaling (JAK1, JAK3, and TYK2 dependent)
Assay: Whole blood IL-2, IL-4, IL-6 stimulated STAT phosphorylation after oral dosing
Assay type: cell-based, human
Details: Homo sapiens, po; depending on the cell lineage, whole blood; read-out: IC50, measures of JAK/STAT signaling
pIC50: −log10 of the molar value.
measured_parameter: pIC50

Qu. // fetch JAK/STAT signaling (JAK1, JAK3, and TYK2 dependent) pIC50 for CCS(=O)(=O)N1CCN(c2ccc(Nc3ncc(C(N)=O)c(NC4CC4)n3)cc2)CC1 [cerdulatinib]
Ans. 5.95 to 6.72

---

Test: Food and proton pump inhibitor crossover PK study in healthy subjects
Assay type: in vivo, human
Settings: human, blood, po, 30 mg, Fed (high-fat diet), 30 mg oral
measured_parameter: Cmax
# include the unit after the value

Qu. // returns reported Cmax for input `CCS(=O)(=O)N1CCN(c2ccc(Nc3ncc(C(N)=O)c(NC4CC4)n3)cc2)CC1`
Ans. 187 ng/mL
